test: Drug metabolism in human liver microsomes at 1 uM after 15 min by HPLC-MS/MS analysis; format: ADME; settings: read-out: Drug metabolism
measurement_kind: metabolised at 0.25 h, 1 µM (%)

COc1cnc(C(=O)Nc2ccc(F)c([C@@]3(C)N=C(N)CO[C@@H]3F)c2)cn1
31
C[C@]1(c2cc(NC(=O)c3ccc(Cl)cn3)ccc2F)N=C(N)CO[C@@H]1F
0
COc1cnc(C(=O)Nc2ccc(F)c([C@]3(C)COCC(N)=N3)c2)cn1
1
C[C@@]1(c2cccc(NC(=O)c3ccc(Cl)cn3)c2)COCC(N)=N1
0

P = Cc1cc(Cl)cnc1C(=O)Nc1ccc(F)c([C@@]2(C)N=C(N)CO[C@@H]2F)c1
Q = C[C@]1(c2cc(NC(=O)c3ccc(C#N)cn3)ccc2F)N=C(N)CO[C@@H]1F
Lookup: Which numeric metabolised at 0.25 h, 1 µM is bigger, that of P or that of Q ? # reply format: chosen label
Found: P
